# System: NCI-H23 lung
# assay-remarks: NCI tumour cell line growth inhibition, 48 h; in the data active means GI50 below about 0.43 µM; inactive means the rest
Your reply should match one of these outcome classes. True for active, False for inactive

As a guide, the following entries are already answered.
| compound | group |
| --- | --- |
| Cc1ccc2c(n1)C(=O)c1[nH]c3ccccc3c1C2=O | False |
| CCC[CH2][Sn]([CH2]CCC)([CH2]CCC)[O]C(=O)CC | True |
| COc1ccc(C(=O)c2cc(OC)c(C)c(OC)c2)cc1OC(=O)CCl | False |
| COc1ccc2c(c1)C(C)Cc1c(Cl)ncnc1N2C (stereo not given) | False |
| CC/C(=C(/c1ccc(OCCN(C)C)cc1)c1ccc(OC(=O)CCCCC(=O)c2c(C)[nH]c(/C=C3\N=C(c4ccc[nH]4)C=C3OC)c2C)cc1)c1ccccc1 | False |

Q: Field: outcome | Entry: CC1OC2CC(=O)OC2C2=C1C(=O)c1c(O)cccc1C2=O (stereo not given)
Result: True

Q: Field: outcome | Entry: O=C(Nc1ccc(OS(=O)(=O)c2ccccc2)cc1)C12CC3CC(CC(C3)C1)C2
Result: False

Q: Field: outcome | Entry: CNCCCn1cc(C2=C(c3cn(C)c4ccccc34)C(=O)NC2=O)c2ccccc21
Result: False

Q: Field: outcome | Entry: CCOC(=O)/C=C/C(C(=O)/C=C/c1ccc(OC2CCCCO2)c(OC)c1)=C(O)\C=C\c1ccc(OC2CCCCO2)c(OC)c1 (stereo not given)
Result: False
